Each record here notes measured melting point.
Measure name: melting point

[H]/N=C1/NC(=O)C(=Cc2ccc(OC)c(O)c2)N1C
276.1 to 277.3 °C
COc1cc(/C=C2\CC(=O)NC2=O)cc(OC)c1OC
191.2 to 193.6 °C
CCOc1cc(C=C2C(=O)NC(=O)NC2=O)ccc1O
244.7 to 246.1 °C
O=C1C/C(=C\c2ccccc2O)C(=O)N1
271.3 to 272.1 °C
O=C1NC(=S)NC(=O)C1=Cc1ccc(O)cc1O
> 300 °C
O=C1NC(=O)/C(=C/c2ccccc2O)N1
265.5 to 268.4 °C
COc1ccc(/C=C2\SC(=O)NC2=O)c(OC)c1
254.7 to 255.6 °C
COc1ccc(C=C2C(=O)NC(=O)NC2=O)c(OC)c1
291.1 to 291.7 °C
COc1cc(C=C2C(=O)NC(=O)NC2=O)cc(OC)c1OC
274.8 to 275.4 °C
[H]/N=C1/NC(=O)C(=Cc2ccc(O)c(OCC)c2)N1C
254.2 to 255.6 °C
COc1ccc(/C=C2\CC(=O)NC2=O)cc1OC
237.1 to 238.4 °C
CCOc1cc(C=C2C(=O)NC(=S)NC2=O)ccc1O
285 to 287.3 °C
COc1ccc(/C=C2/C(=O)NC(=N)N2C)cc1
252.1 to 255 °C
O=C1C/C(=C\c2ccc(O)c(O)c2)C(=O)N1
290.8 to 291.9 °C
COc1ccc(/C=C2\NC(=S)NC2=O)cc1OC
236.2 to 238 °C
COc1ccc(/C=C2\SC(=S)NC2=O)cc1O
210.2 to 212.5 °C
COc1cc(/C=C2\SC(=O)NC2=O)cc(OC)c1OC
179.1 to 181 °C
O=C1NC(=S)N/C1=C\c1ccc(O)cc1O
> 300 °C
CCOc1cc(/C=C2\CC(=O)NC2=O)ccc1O
222.3 to 224.1 °C
[H]/N=C1/NC(=O)C(=Cc2cc(OC)c(O)c(OC)c2)S1
254.3 to 256.6 °C
COc1cc(/C=C2\CC(=O)NC2=O)ccc1O
243.5 to 245.7 °C
O=C1C/C(=C\c2cc(O)cc(O)c2)C(=O)N1
275.2 to 277.8 °C

----------
Measure name: melting point

COc1ccc(C=C2C(=O)NC(=S)NC2=O)c(OC)c1
294.1 to 295.4 °C
COc1cc(/C=C2\NC(=O)NC2=O)cc(OC)c1OC
266.3 to 267.2 °C
[H]/N=C1/NC(=O)C(=Cc2ccc(O)c(O)c2)N1C
293 to 295.3 °C
[H]/N=C1/NC(=O)C(=Cc2ccc(OC)c(OC)c2)S1
274.2 to 276.3 °C
COc1ccc(C=C2C(=O)NC(=O)NC2=O)cc1OC
> 300 °C
[H]/N=C1/NC(=O)C(=Cc2ccccc2O)S1
210.1 to 211.5 °C
COc1ccc(/C=C2\CC(=O)NC2=O)cc1O
268.7 to 270.3 °C
COc1cc(C=C2C(=O)NC(=S)NC2=O)ccc1O
260.9 to 263.6 °C
O=C1NC(=S)N/C1=C\c1cc(O)cc(O)c1
> 300 °C
COc1ccc(/C=C2\SC(=S)NC2=O)c(OC)c1
272.7 to 275.2 °C
COc1cc(C=C2C(=O)NC(=S)NC2=O)cc(OC)c1OC
258.9 to 260.7 °C
